Reference source for all entries: patent US11746116B2

- Method description: Single dose pharmacokinetics study, oral route
- Condition description: male, CD-1 (ICR), mouse, in vivo, po, 20 mg/kg

>  <Molecular string>
C[C@H]1COc2c(N3CC[C@@H](Nc4ncccn4)C3)c(F)cc3c(=O)c(C(=O)O)cn1c23

>  <AUC(0-inf), µM·h>
31

$$$$

###

- Tested on: MSSA9144
- Method description: MIC, microdilution broth method
- Format: cell-based, Staphylococcus aureus
- Condition description: ESKAPE panel, Gram-positive; in µg/mL

>  <Compound>
C[C@H]1COc2c(N3CCC(N4CCOCC4)C3)c(F)cc3c(=O)c(C(=O)O)cn1c23 (some centres unmarked)

>  <Value qualifier>
=

>  <MIC, MSSA9144>
0.25

$$$$
>  <Compound>
C[C@H]1COc2c(N3CCC(Nc4ncccn4)C3)c(F)cc3c(=O)c(C(=O)O)cn1c23 (some centres unmarked)

>  <Value qualifier>
=

>  <MIC, MSSA9144>
0.06

$$$$
>  <Compound>
C[C@H]1COc2c(N3CC[C@H](Nc4ncccn4)C3)c(F)cc3c(=O)c(C(=O)O)cn1c23

>  <Value qualifier>
=

>  <MIC, MSSA9144>
0.25

$$$$
>  <Compound>
C[C@H]1COc2c(N3CC[C@@H](Nc4ncc(F)cn4)C3)c(F)cc3c(=O)c(C(=O)O)cn1c23

>  <Value qualifier>
≤

>  <MIC, MSSA9144>
0.125

$$$$
>  <Compound>
C[C@H]1COc2c(N3CC[C@H](Nc4cc(NC5CC5)ncn4)C3)c(F)cc3c(=O)c(C(=O)O)cn1c23

>  <Value qualifier>
=

>  <MIC, MSSA9144>
0.5

$$$$
>  <Compound>
C[C@H]1COc2c(N3CC[C@H](Nc4ncc(N)cn4)C3)c(F)cc3c(=O)c(C(=O)O)cn1c23

>  <Value qualifier>
≤

>  <MIC, MSSA9144>
0.125

$$$$

###

- System under test: UniProt P11712
- Sequence (P11712 whole entry): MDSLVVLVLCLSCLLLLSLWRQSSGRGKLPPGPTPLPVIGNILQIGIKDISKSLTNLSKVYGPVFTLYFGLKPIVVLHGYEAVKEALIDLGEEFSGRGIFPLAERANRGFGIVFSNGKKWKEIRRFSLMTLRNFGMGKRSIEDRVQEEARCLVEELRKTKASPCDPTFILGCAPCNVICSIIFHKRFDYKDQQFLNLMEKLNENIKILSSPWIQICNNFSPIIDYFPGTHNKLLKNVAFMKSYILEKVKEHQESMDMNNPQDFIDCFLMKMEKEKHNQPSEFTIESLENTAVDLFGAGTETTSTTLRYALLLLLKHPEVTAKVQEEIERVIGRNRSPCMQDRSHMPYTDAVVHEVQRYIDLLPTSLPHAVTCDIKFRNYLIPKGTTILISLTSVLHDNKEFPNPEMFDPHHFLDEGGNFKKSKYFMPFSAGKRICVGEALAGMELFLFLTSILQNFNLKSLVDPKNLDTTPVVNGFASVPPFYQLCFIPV
- Method description: in vitro
- Condition description: microsomes, % inhibition, CYP2C9 inhibition (HLM, diclofenac substrate)

>  <Molecular string>
C[C@H]1COc2c(N3CC[C@@H](Nc4ncccn4)C3)c(F)cc3c(=O)c(C(=O)O)cn1c23

>  <inhibition at 10 µM (%)>
12.8

$$$$

###

- Test system: VSE775
- Method description: MIC, microdilution broth method
- Type: cell-based, Enterococcus faecalis
- Condition description: VSE775; in µg/mL

>  <Molecular string>
CCn1cc(C(=O)O)c(=O)c2cc(F)c(N3CCN(Cc4cccc5ccsc45)CC3)cc21

>  <System under test>
VSE775

>  <MIC>
4

$$$$
>  <Molecular string>
O=C(O)c1cn(C2CC2)c2cc(N3CCN(Cc4ccc(CO)cc4)CC3)c(F)cc2c1=O

>  <System under test>
VSE775

>  <MIC>
1

$$$$
>  <Molecular string>
CCn1cc(C(=O)O)c(=O)c2cc(F)c(N3CCN(Cc4cccc(COC)c4)CC3)cc21

>  <System under test>
VSE775

>  <MIC>
16

$$$$
>  <Molecular string>
C[C@H]1COc2c(N3CCCN(c4cnccn4)CC3)c(F)cc3c(=O)c(C(=O)O)cn1c23

>  <System under test>
VSE775

>  <MIC>
1

$$$$
>  <Molecular string>
CCn1cc(C(=O)O)c(=O)c2cc(F)c(N3CCN(Cc4cccc5c4CCCC5)CC3)cc21

>  <System under test>
VSE775

>  <MIC>
2

$$$$
>  <Molecular string>
C[C@H]1COc2c(N3CCC(n4cccn4)CC3)c(F)cc3c(=O)c(C(=O)O)cn1c23

>  <System under test>
VSE775

>  <MIC>
8

$$$$
>  <Molecular string>
CCn1cc(C(=O)O)c(=O)c2cc(F)c(N3CCN(Cc4ccc(-c5noc(C)n5)cc4)CC3)cc21

>  <System under test>
VSE775

>  <MIC>
8

$$$$
